Test Name: GSK inMac assay, host cell toxicity readout (LD MAC)
Assay type: cell-based, human
Experimental Context: human; host THP-1 cells
So basically: is CC50 under 30 µM? Then YES. Not under? Then NO.

>>> group("CCCn1nc2c(c1CC(C)C)C(c1ccc(F)cc1)N(c1ccc(OC)cc1)C2=O (centres unmarked)")
"YES"
>>> group("COc1cc(N2C(=O)c3[nH]nc(CC(C)C)c3C2c2ccccc2Br)cc(OC)c1OC (centres unmarked)")
"YES"
>>> group("CC(C)Cc1n[nH]c2c1C(c1c(Cl)cccc1Cl)N(c1ccc(N(C)C)cc1)C2=O (centres unmarked)")
"YES"
>>> group("COC(=O)c1ccc(N2C(=O)c3[nH]nc(CC(C)C)c3C2c2cccc(C(F)(F)F)c2)cc1 (centres unmarked)")
"NO"
>>> group("C=CCn1nc2c(c1CC(C)C)C(c1ccc(F)cc1)N(c1ccc(OC)cc1)C2=O (centres unmarked)")
"NO"
>>> group("CC(C)Cc1n[nH]c2c1C(c1ccsc1)N(c1ccc3c(c1)OCO3)C2=O (centres unmarked)")
"NO"
>>> group("COc1cccc(N2C(=O)c3[nH]nc(CC(C)C)c3C2C2CCCCC2)c1 (centres unmarked)")
"NO"
>>> group("CC(C)Cc1nn(-c2ccc(OC(F)(F)F)cc2)c2c1C(c1ccccc1)NC2=O (centres unmarked)")
"NO"

====

Tested on: L. donovani intracellular amastigotes in B10R cells
Test Name: UCSD L. donovani infection assay (Assay Conditions D)
Format: cell-based
Experimental Context: B10R cells
Entries and their measured L. donovani amastigotes EC75 (μM, B10R cells) follow.
Measured Quantity: L. donovani amastigotes EC75 (μM, B10R cells)

>>> readout_value("Cc1cc(N2C(=O)c3[nH]nc(CC(C)C)c3C2c2ccc(Cl)cc2)n(C)n1 (centres unmarked)")
">10 µM"
>>> readout_value("CC(C)Cc1n[nH]c2c1C(c1ccc(F)cc1F)N(c1ccc(C(=O)N3CCCC3)cc1)C2=O (centres unmarked)")
">10 µM"
>>> readout_value("COc1ccc(N2C(=O)c3[nH]nc(CC(C)C)c3C2c2ccc(F)cc2C)nc1 (centres unmarked)")
">10 µM"
>>> readout_value("CC(C)Cc1n[nH]c2c1C(c1ccccc1C(F)(F)F)N(c1cncc(F)c1)C2=O (centres unmarked)")
"1.4 µM"
>>> readout_value("CC(C)Cc1n[nH]c2c1C(c1ccc(F)c(F)c1)N(c1ccc(C(=O)N3CCCC3)cc1)C2=O (centres unmarked)")
">10 µM"
>>> readout_value("CC(C)Cc1n[nH]c2c1C(c1cccs1)N(c1ccc3ncnn3c1)C2=O (centres unmarked)")
">10 µM"
>>> readout_value("CC(C)Cc1n[nH]c2c1C(c1ccccc1Cl)N(c1cncc(F)c1)C2=O (centres unmarked)")
">10 µM"
>>> readout_value("Cc1cc(F)ccc1C1c2c(CC(C)C)n[nH]c2C(=O)N1c1cncc(F)c1 (centres unmarked)")
">10 µM"

====

Tested on: HepG2 cells
Test Name: HepG2 cytotoxicity
Assay type: cell-based
Experimental Context: Homo sapiens; toxicity against HepG2 cells
Measured Quantity: EC50 (µM)

>>> readout_value("COc1ccc(N2C(=O)c3[nH]nc(CC(C)C)c3C2c2ccccc2Br)cc1 (centres unmarked) [Compound 56]")
39.8
>>> readout_value("COc1ccc(N2C(=O)c3[nH]nc(CC(C)C)c3C2c2ccc(F)cc2C)cc1 (centres unmarked) [Compound 64]")
50.1
>>> readout_value("COc1ccc(N2C(=O)c3[nH]nc(CC(C)C)c3C2c2ccccc2)cc1 (centres unmarked) [Compound 2]")
79.4
>>> readout_value("COc1ccc(N2C(=O)c3[nH]nc(CC(C)C)c3C2c2ccccc2Cl)cc1 (centres unmarked) [Compound 55]")
31.6
>>> readout_value("C=C(C)CCc1n[nH]c2c1C(c1ccc(F)cc1)N(c1ccc(OC)cc1)C2=O (centres unmarked) [Compound 13]")
50.1

====

Test Name: GSK inMac assay, host cell toxicity readout (LD MAC)
Format: cell-based, human
Experimental Context: human; footnote c; read-out: THP-1 Host Cell CC50
Measured Quantity: log10 CC50 (log10 of the value in µM)

>>> readout_value("COc1ccc(N2C(=O)c3[nH]nc(CC(C)C)c3C2c2ccccc2)cc1 (centres unmarked)")
1.50
>>> readout_value("COc1ccccc1C1c2c(CC(C)C)n[nH]c2C(=O)N1c1ccc(Br)cc1 (centres unmarked)")
0.04
>>> readout_value("COc1ccc(N2C(=O)c3[nH]nc(CC(C)C)c3[C@H]2c2ccc(F)cc2C)cc1")
1.50
>>> readout_value("COC(=O)c1ccc(C2c3c(CC(C)C)n[nH]c3C(=O)N2c2ccc(OC)cc2)cc1 (centres unmarked)")
1.60
>>> readout_value("CCOc1ccc(N2C(=O)c3[nH]nc(CC(C)C)c3C2c2ccc(F)cc2)cc1 (centres unmarked)")
1.30
>>> readout_value("COc1ccccc1N1C(=O)c2[nH]nc(CC(C)C)c2C1c1cccc(C(F)(F)F)c1 (centres unmarked)")
1.30
>>> readout_value("COc1ccc(N2C(=O)c3[nH]nc(CC(C)C)c3C2c2ccc(F)cc2OC)cc1F (centres unmarked)")
0.90
>>> readout_value("COc1ccc(N2C(=O)c3[nH]nc(CC(C)C)c3C2c2ccc(F)cc2)cc1F (centres unmarked)")
1.40

====

Test system: L. donovani intracellular amastigotes in B10R cells
Test Name: UCSD L. donovani infection assay (Assay Conditions D)
Format: cell-based
Experimental Context: B10R cells
We begin with a simple list: items and their reported L. donovani amastigotes EC75 (μM, B10R cells).
Measured Quantity: L. donovani amastigotes EC75 (μM, B10R cells)

>>> readout_value("COc1ccc(OC)c(C2c3c(CC(C)C)n[nH]c3C(=O)N2c2cccc(C)n2)c1 (centres unmarked) [BUCMD00199]")
">10 µM"
>>> readout_value("Cc1ccc(N2C(=O)c3[nH]nc(CC(C)C)c3C2c2ccc(Br)cc2F)cn1 (centres unmarked) [BUCMD00641]")
">10 µM"
>>> readout_value("Cc1ccc(N2C(=O)c3[nH]nc(CC(C)C)c3C2c2ccc(F)cc2F)cn1 (centres unmarked) [BUCMD00630]")
"7.3 µM"
>>> readout_value("Cc1ccnc(N2C(=O)c3[nH]nc(CC(C)C)c3C2c2ccc(F)cc2)c1 (centres unmarked) [BUCMD00173]")
">10 µM"
>>> readout_value("CC(C)Cc1n[nH]c2c1C(c1ccccc1C(F)(F)F)N(c1cnn(C(C)C)c1)C2=O (centres unmarked) [BUCMD00679]")
"10.4 µM"
>>> readout_value("CC(C)Cc1n[nH]c2c1C(c1ccc(F)cc1F)N(c1ccn(C)n1)C2=O (centres unmarked) [BUCMD00659]")
">10 µM"
>>> readout_value("CC(C)Cc1n[nH]c2c1C(c1ccc(Br)cc1F)N(c1ccc(F)nc1)C2=O (centres unmarked) [BUCMD00649]")
">10 µM"
>>> readout_value("CC(C)Cc1n[nH]c2c1C(c1ccccc1F)N(c1ccc(N3CCN(C)CC3)nc1)C2=O (centres unmarked) [BUCMD00724]")
">10 µM"

====

Test Name: Kinetic aqueous solubility by CLND
Format: physicochemical
Experimental Context: aqueous medium (not further specified), kinetic from dmso stock, high-throughput CLND
We begin with a simple list: items and their reported log10 of solubility.
Measured Quantity: log10 of solubility (log10 of the value in µM)

>>> readout_value("COc1cccc(N2C(=O)c3[nH]nc(CC(C)C)c3C2c2ccc(F)cc2)c1 (stereo not drawn)")
1.81
>>> readout_value("COc1ccccc1N1C(=O)c2[nH]nc(CC(C)C)c2C1c1ccc(F)cc1 (stereo not drawn)")
2.38
>>> readout_value("COc1ccc(N2C(=O)c3[nH]nc(CC(C)C)c3C2C2CCCCC2)cc1 (stereo not drawn)")
1.46
>>> readout_value("COc1ccc(N2C(=O)c3[nH]nc(CC(C)C)c3C2c2ccc(OC)nc2)cc1 (stereo not drawn)")
2.43
>>> readout_value("COc1ccc(N2C(=O)c3[nH]nc(CC(C)C)c3C2c2cccc(Br)c2)cc1 (stereo not drawn)")
1.00
>>> readout_value("COc1ccc(N2C(=O)c3[nH]nc(CC(C)C)c3C2c2ccc(F)cc2C)cc1 (stereo not drawn)")
1.63
>>> readout_value("COc1ccc(N2C(=O)c3[nH]nc(CC(C)C)c3C2c2ccc(F)c(F)c2)cc1 (stereo not drawn)")
1.64
>>> readout_value("COc1ccc(N2C(=O)c3[nH]nc(CC(C)C)c3C2c2cccc(C(F)(F)F)c2)cc1 (stereo not drawn)")
1.30

====

Entries and their measured PFI follow.
Test Name: Property forecast index (PFI = ChromLogD7.4 + aromatic rings)
Assay type: physicochemical
Experimental: At the outset of the project, compound 1 was evaluated against GSK's established criteria for antileishmanial compound advancement (Table 2). Some of these assessments were performed on racemic 1, while chiral separation was also pursued of the 1 racemate to determine the active enantiomer. […]
Measured Quantity: PFI

>>> readout_value("COc1ccc(N2C(=O)c3[nH]nc(CC(C)C)c3C2c2cc(F)nc(F)c2)cc1 (centres unmarked) [Compound S14]")
7.4
>>> readout_value("CC(C)Cc1n[nH]c2c1C(c1ccc(F)cc1)N(c1ccc(-n3ccnc3)cc1)C2=O (centres unmarked) [Compound 28]")
8.1
>>> readout_value("Cc1cc(F)ccc1C1c2c(CC(C)C)n[nH]c2C(=O)N1c1ccc(N(C)C)cc1 (centres unmarked) [Compound 81]")
9.1
>>> readout_value("COc1ccc(N2C(=O)c3[nH]nc(CC(C)C)c3C2c2ccncc2)cc1 (centres unmarked) [Compound S6]")
6.3
>>> readout_value("COc1ccc(N2C(=O)c3[nH]nc(CC(C)C)c3C2c2cccc(Cl)c2)cc1 (centres unmarked) [Compound 59]")
9.0
>>> readout_value("CC(C)Cc1n[nH]c2c1C(c1ccc(F)cc1)N(c1ccc(O)cc1)C2=O (centres unmarked) [Compound 18]")
7.1
>>> readout_value("COc1ccc(N2C(=O)c3[nH]nc(CC(C)C)c3C2c2ccc(F)cc2)cc1 (racemic) [Compound 1]")
8.4
>>> readout_value("COc1ccc(N2C(=O)c3[nH]nc(CC(C)C)c3C2c2c(Cl)cccc2Cl)cc1 (centres unmarked) [Compound 66]")
9.1
>>> readout_value("COc1ccc(N2C(=O)c3[nH]nc(CC(C)C)c3C2c2ccc(F)cc2)cc1F (centres unmarked) [Compound 42]")
8.6
>>> readout_value("COc1ccc(N2C(=O)c3[nH]nc(CC(C)C)c3C2c2ccc(F)c(F)c2)cc1 (centres unmarked) [Compound 65]")
8.7
>>> readout_value("COc1ccc(N2C(=O)c3[nH]nc(CC(C)C)c3C2c2ccc(F)c(C)n2)cc1 (centres unmarked) [Compound S13]")
8.3
>>> readout_value("Cc1ccc(CN2C(=O)c3[nH]nc(CC(C)C)c3C2c2ccc(F)cc2)o1 (centres unmarked) [Compound 35]")
8.9
>>> readout_value("CC(C)Cc1n[nH]c2c1C(c1ccc(F)cc1)N(CC1CCN(C)C1)C2=O (centres unmarked) [Compound 40]")
4.8
>>> readout_value("CC(C)Cc1n[nH]c2c1C(c1ccc(F)cc1)N(C1CCC(N(C)C)CC1)C2=O (centres unmarked) [Compound 37]")
4.6
>>> readout_value("COc1ccc(N2C(=O)c3[nH]nc(CC(C)C)c3C2c2nccs2)cc1 (centres unmarked) [Compound S5]")
7.2
>>> readout_value("CC(C)Cc1n[nH]c2c1C(c1ccccc1Br)N(c1ccc(Br)cc1)C2=O (centres unmarked) [Compound 74]")
10.4
>>> readout_value("COc1ccc(N2C(=O)c3[nH]nc(CC(C)C)c3C2c2ccccc2Br)cc1 (centres unmarked) [Compound 56]")
9.2

Origin of measurements: patent US20230381142A1
